The reported measurements were obtained from ChEMBL document CHEMBL1156689.

- Test system: HepG2
- assayName: Cytotoxicity against MDR1 Pgp overexpressing human HepG2 cells after 24 hrs by MTT assay
- Format: functional, cell-based
- settings: HepG2, 24 h
valueType: pIC50
Formally, pIC50 is defined as -log10 of the concentration c, with c in mol/L.

Study these solved cases before continuing.
| molecule | pIC50 |
| --- | --- |
| CC(=O)O[C@H](CC=C(C)C)C1=CC(=O)c2c(O)ccc(O)c2C1=O | 6.42 |
| CCO[C@H](CC=C(C)C)C1=CC(=O)c2c(O)ccc(O)c2C1=O | 6.38 |
| O=C(O)c1cc(O)c2c(c1)[C@H]([C@H]1c3cc(C(=O)O)cc(O)c3C(=O)c3c(O[C@@H]4O[C@H](CO)[C@@H](O)[C@H](O)[C@H]4O)cccc31)c1cccc(O[C@@H]3O[C@H](CO)[C@@H](O)[C@H](O)[C@H]3O)c1C2=O [Sennoside A] | 4.29 |

Reported pIC50 of CC(C)=CC[C@H](OC(=O)C1OC1C)C1=CC(=O)c2c(O)ccc(O)c2C1=O (some centres not stated) : 6.47

Reported pIC50 of O=C(O)c1cc(O)c2c(c1)C(=O)c1cccc(O)c1C2=O : 4.91

---

- System: HepG2
- assayName: Cytotoxicity against MDR1 Pgp overexpressing human HepG2 cells after 24 hrs by MTT assay
- Assay type: functional, cell-based
- settings: HepG2, 24 h
Parameter log10 IC50: see the listing below.
Please be aware that the numbers have been log10-transformed from IC50 in µM.

Study these solved cases before continuing.
| compound | valueType | measurement |
| --- | --- | --- |
| CC(C)=CC[C@@H](OC(=O)C(C)C)C1=CC(=O)c2c(O)ccc(O)c2C1=O [ISOBUTYLSHIKONIN] | log10 IC50 | -0.66 |
| Cc1cc(O)c2c(c1)C(=O)c1cccc(O)c1C2=O [CHRYSOPHANOL] | log10 IC50 | 1.81 |
| Cc1cc(O)c2c(c1)C(=O)c1cc(O)cc(O)c1C2=O [EMODIN] | log10 IC50 | 0.72 |
| CC(C)=CC[C@H](OC(=O)C(C)C)C1=CC(=O)c2c(O)ccc(O)c2C1=O [ISOBUTYLALKANNIN] | log10 IC50 | -0.38 |

Now, please, on to the next compound.
Tested on HepG2, the item O=C1c2cccc(O)c2C(=O)c2c(O)cc(CO)cc21 [ALOE-EMODIN] showed log10 IC50 equal to 1.00

---

Parameter IC50: see the listing below.
- Tested on: HepG2
- assayName: Cytotoxicity against MDR1 Pgp overexpressing human HepG2 cells after 24 hrs by MTT assay
- Assay type: functional, cell-based
- settings: HepG2, 24 h
Write the value in nM as a bare number.

Study these solved cases before continuing.
| compound | valueType | unitText | measurement |
| --- | --- | --- | --- |
| COc1cc(O)c2c(c1)C(=O)c1cc(C)cc(O)c1C2=O | IC50 | nM | 77300 |
| CC(C)=CC[C@@H](O)C1=CC(=O)c2c(O)ccc(O)c2C1=O | IC50 | nM | 240 |
| CC(C)=CC[C@@H](OC(=O)CC(C)(C)O)C1=CC(=O)c2c(O)ccc(O)c2C1=O [BETA-HYDROXYISOVALERYLSHIKONIN] | IC50 | nM | 590 |

Tested on HepG2, the item CC(=O)O[C@@H](CC=C(C)C)C1=CC(=O)c2c(O)ccc(O)c2C1=O showed IC50 equal to 390
